System: Bacillus subtilis
Protocol summary: Antimicrobial activity against Bacillus subtilis ATCC 6633 by tube dilution method
Type: functional
Simple rule here: MIC less than 20 µg/mL is Condition met, otherwise Condition not met.

>  <Smiles structure>
CN(C)c1ccc(-c2nc3cc(Cl)ccc3n2C2CCCC2)cc1

>  <Group label>
Condition not met

$$$$
>  <Smiles structure>
CC1(C)S[C@@H]2[C@H](NC(=O)[C@H](N)c3ccccc3)C(=O)N2[C@H]1C(=O)OCOC(=O)[C@@H]1N2C(=O)C[C@H]2S(=O)(=O)C1(C)C

>  <Group label>
Condition met

$$$$
>  <Smiles structure>
O=C(O)c1cn(C2CC2)c2cc(N3CCNCC3)c(F)cc2c1=O

>  <Group label>
Condition met

$$$$
>  <Smiles structure>
Nc1nc2cc(Cl)c(Cl)cc2n1C1CCCC1

>  <Group label>
Condition met

$$$$
>  <Smiles structure>
O=[N+]([O-])c1cccc(-c2nc3cc(Cl)ccc3n2C2CCCC2)c1

>  <Group label>
Condition not met

$$$$
>  <Smiles structure>
CC(C)(C)c1ccc(-c2nc3cc(Cl)c(Cl)cc3n2C2CCCC2)cc1

>  <Group label>
Condition not met

$$$$
>  <Smiles structure>
Fc1ccc(-c2nc3cc(Cl)ccc3n2C2CCCC2)cc1

>  <Group label>
Condition met

$$$$
>  <Smiles structure>
CCOc1cc2c(cc1Cl)nc(-c1cccc([N+](=O)[O-])c1)n2C1CCCC1

>  <Group label>
Condition not met

$$$$
>  <Smiles structure>
CCOc1cc2c(cc1Cl)nc(-c1ccc(F)cc1)n2C1CCCC1

>  <Group label>
Condition not met

$$$$
>  <Smiles structure>
N#Cc1ccc(-c2nc3cc(Cl)ccc3n2C2CCCC2)cc1

>  <Group label>
Condition not met

$$$$
>  <Smiles structure>
COc1ccc(-c2nc3cc(Cl)c(Cl)cc3n2C2CCCC2)cc1

>  <Group label>
Condition not met

$$$$
>  <Smiles structure>
CC(C)(C)c1ccc(-c2nc3cc(Cl)ccc3n2C2CCCC2)cc1

>  <Group label>
Condition not met

$$$$
>  <Smiles structure>
CCOc1cc2c(cc1Cl)nc(-c1ccc(OC(C)=O)cc1)n2C1CCCC1

>  <Group label>
Condition not met

$$$$
>  <Smiles structure>
CC(C)Nc1nc2cc(Cl)c(Cl)cc2n1C1CCCC1

>  <Group label>
Condition not met

$$$$
>  <Smiles structure>
COc1ccc(-c2nc3cc(Cl)ccc3n2C2CCCC2)cc1

>  <Group label>
Condition not met

$$$$
>  <Smiles structure>
CCOc1cc2c(cc1Cl)nc(-c1ccc(Cl)cc1)n2C1CCCC1

>  <Group label>
Condition not met

$$$$
>  <Smiles structure>
Nc1nc2cc(Cl)ccc2n1C1CCCC1

>  <Group label>
Condition not met

$$$$
>  <Smiles structure>
Clc1cc2nc(-c3ccc4ccccc4c3)n(C3CCCC3)c2cc1Cl

>  <Group label>
Condition met

$$$$
>  <Smiles structure>
Clc1ccc(-c2nc3cc(Cl)c(Cl)cc3[nH]2)cc1

>  <Group label>
Condition not met

$$$$
>  <Smiles structure>
Fc1ccc(-c2nc3cc(Cl)c(Cl)cc3[nH]2)cc1

>  <Group label>
Condition met

$$$$
>  <Smiles structure>
Clc1ccc(-c2nc3cc(Cl)ccc3n2C2CCCC2)cc1

>  <Group label>
Condition not met

$$$$
>  <Smiles structure>
CC(=O)Oc1ccc(-c2nc3cc(Cl)ccc3n2C2CCCC2)cc1

>  <Group label>
Condition not met

$$$$
>  <Smiles structure>
CC(C)(C)c1ccc(-c2nc3cc(Cl)c(Cl)cc3[nH]2)cc1

>  <Group label>
Condition met

$$$$
>  <Smiles structure>
Clc1ccc(-c2nc3cc(Cl)c(Cl)cc3n2C2CCCC2)cc1

>  <Group label>
Condition not met

$$$$
>  <Smiles structure>
Clc1cc2nc(Br)n(C3CCCC3)c2cc1Cl

>  <Group label>
Condition not met

$$$$
>  <Smiles structure>
Clc1cc2nc(Cl)n(C3CCCC3)c2cc1Cl

>  <Group label>
Condition not met

$$$$
>  <Smiles structure>
Clc1cc2nc(-c3ccc4ccccc4c3)[nH]c2cc1Cl

>  <Group label>
Condition not met

$$$$
>  <Smiles structure>
Clc1cc2ncn(C3CCCC3)c2cc1Cl

>  <Group label>
Condition met

$$$$
>  <Smiles structure>
Clc1ccc2c(c1)ncn2C1CCCC1

>  <Group label>
Condition not met

$$$$
>  <Smiles structure>
CC(=O)Oc1ccc(-c2nc3cc(Cl)c(Cl)cc3n2C2CCCC2)cc1

>  <Group label>
Condition not met

$$$$
>  <Smiles structure>
Clc1ccc2c(c1)nc(-c1ccc(OCc3ccccc3)cc1)n2C1CCCC1

>  <Group label>
Condition not met

$$$$
>  <Smiles structure>
Fc1ccc(-c2nc3cc(Cl)c(Cl)cc3n2C2CCCC2)cc1

>  <Group label>
Condition not met

$$$$
>  <Smiles structure>
Clc1ccc2c(c1)nc(-c1ccc3ccccc3c1)n2C1CCCC1

>  <Group label>
Condition not met

$$$$
